A compilation of IC50 values for Serine/threonine-protein kinase ATR (Homo sapiens, UniProt Q13535) from the published literature.
Enter your answer as a number in nM; do not include the unit.

Query the reported IC50 for Serine/threonine-protein kinase ATR (Homo sapiens, UniProt Q13535); item: `C[C@@H]1COCCN1c1nc(-c2cncc3[nH]ccc23)nc2c1ccn2S(C)(=O)=O`
1.6

Query the reported IC50 for Serine/threonine-protein kinase ATR (Homo sapiens, UniProt Q13535); item: `C[C@@H]1COCCN1c1cc(C2(C#N)CC2)c2c(n1)c(-c1cc[nH]n1)nn2C`
9

Query the reported IC50 for Serine/threonine-protein kinase ATR (Homo sapiens, UniProt Q13535); item: `Cc1cc(Nc2cc(-c3c(C)nnn3C)cc(N3CCOC[C@H]3C)n2)[nH]n1`
15.5

Query the reported IC50 for Serine/threonine-protein kinase ATR (Homo sapiens, UniProt Q13535); item: `Cc1c(-c2cc(N3CCOC[C@H]3C)nc(-c3ccnc4[nH]ccc34)n2)c(C(F)(F)F)nn1C`
21

Query the reported IC50 for Serine/threonine-protein kinase ATR (Homo sapiens, UniProt Q13535); item: `COc1c(-c2cc(N3CCOC[C@H]3C)nc(-c3ccnc4[nH]ccc34)n2)c(C(F)(F)F)nn1C1CCN(C)CC1`
28

Query the reported IC50 for Serine/threonine-protein kinase ATR (Homo sapiens, UniProt Q13535); item: `Cc1nn(C)cc1-c1cc(N2CCOC[C@H]2C)nc(-c2ccnc3[nH]ccc23)n1`
92

Please turn your attention to the following entry.
Query the reported IC50 for Serine/threonine-protein kinase ATR (Homo sapiens, UniProt Q13535); item: `Cc1cc(Nc2nc(N3CCOC[C@H]3C)cc(C(C)(C)S(C)(=O)=O)n2)[nH]n1`
13.2
